Tested on: AncSZ
Assay: phosphorylation enrichment, bacterial display (enrichment ratio); higher = better substrate or ligand; peptides without Tyr show the background
Criterion: phosphorylation enrichment meeting or surpassing 0.9. Met: True. Not met: False.

Residues	Answer label
HNLFSYPTKHE [MYO3A_Y1396_YF]	False
KELAPYDENCF [RPS19_Y48_W52C]	True
IPKTWYSAEQF [CD207_Y217]	False
RVKPIYFHTQG [AR_Y916_K911R]	True
KPSLKYVTYGN [GALNTL5_Y404_G401S]	False

Query: Quick check: does ARMTNCGLPRY [TSPAN12_Y138_Y138C] have phosphorylation enrichment greater than or equal to 0.9?
Reply: False

Query: Quick check: does QAKRKYQEVSK [FES_Y156_A159V] have phosphorylation enrichment greater than or equal to 0.9?
Reply: False

Query: Quick check: does IATAIYSGDKI [UGGT2_Y823] have phosphorylation enrichment greater than or equal to 0.9?
Reply: False

###

Test system: c-Abl (mouse)
Experiment: phosphorylation enrichment, bacterial display (enrichment ratio); higher = better substrate or ligand; peptides without Tyr show the background
Criterion: phosphorylation enrichment meeting or surpassing 0.7. Met: Criterion met. Not met: Criterion not met.

Worked examples follow.
Residues	Measurement target	Answer label
RSSPVYVGRVV [TGM2_Y219]	c-Abl (mouse)	Criterion met
IATTIYSGDKI [UGGT2_Y823_A821T]	c-Abl (mouse)	Criterion met
FSDQVYRQRRK [TH_Y230]	c-Abl (mouse)	Criterion met
LKVKAYRFSIS [LCT_Y974]	c-Abl (mouse)	Criterion met
EQKKYYNAMKN [SCN5A_Y1495_K1500N]	c-Abl (mouse)	Criterion not met

Query: Quick check: does IGEGTYGVLYK [CDK2_Y15_V18L] have phosphorylation enrichment greater than or equal to 0.7?
Reply: Criterion not met

Query: Quick check: does KPGVNYYFRVS have phosphorylation enrichment greater than or equal to 0.7?
Reply: Criterion met

Query: Quick check: does EVQKDYEHLFK [PAM16_Y77_N76D] have phosphorylation enrichment greater than or equal to 0.7?
Reply: Criterion not met

###

Target: EPHB1 (UniProt P54762)
Sequence (P54762 whole entry, looked up): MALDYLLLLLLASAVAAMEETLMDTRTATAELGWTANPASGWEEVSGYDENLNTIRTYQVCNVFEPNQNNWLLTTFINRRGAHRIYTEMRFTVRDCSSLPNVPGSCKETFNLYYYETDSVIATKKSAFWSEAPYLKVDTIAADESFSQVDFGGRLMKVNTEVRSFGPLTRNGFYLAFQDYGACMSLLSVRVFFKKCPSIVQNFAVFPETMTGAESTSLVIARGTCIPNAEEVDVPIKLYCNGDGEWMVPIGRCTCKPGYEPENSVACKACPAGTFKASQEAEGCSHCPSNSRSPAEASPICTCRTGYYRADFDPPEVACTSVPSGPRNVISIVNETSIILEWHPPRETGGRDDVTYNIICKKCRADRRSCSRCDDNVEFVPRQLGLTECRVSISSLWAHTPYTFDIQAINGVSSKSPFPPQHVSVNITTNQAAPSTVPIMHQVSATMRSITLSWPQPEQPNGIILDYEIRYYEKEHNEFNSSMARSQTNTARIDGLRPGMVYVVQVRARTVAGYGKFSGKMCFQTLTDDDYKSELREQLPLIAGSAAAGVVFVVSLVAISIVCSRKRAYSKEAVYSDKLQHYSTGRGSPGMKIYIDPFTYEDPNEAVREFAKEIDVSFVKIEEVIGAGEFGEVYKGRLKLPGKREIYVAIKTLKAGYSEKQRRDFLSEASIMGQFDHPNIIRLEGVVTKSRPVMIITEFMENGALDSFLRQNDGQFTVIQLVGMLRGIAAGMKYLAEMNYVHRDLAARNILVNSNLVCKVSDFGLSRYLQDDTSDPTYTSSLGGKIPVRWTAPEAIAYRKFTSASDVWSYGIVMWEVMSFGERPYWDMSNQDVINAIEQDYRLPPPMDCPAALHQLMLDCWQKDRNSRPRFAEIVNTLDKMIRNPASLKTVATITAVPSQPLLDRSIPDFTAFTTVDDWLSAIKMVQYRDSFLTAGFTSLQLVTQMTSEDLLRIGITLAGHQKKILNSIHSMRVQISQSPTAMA
Experiment: phosphorylation enrichment, bacterial display (enrichment ratio); higher = better substrate or ligand; peptides without Tyr show the background
Measurement name: phosphorylation enrichment
Reply with the value as a number alone.

Worked cases, answers included:
Residues	phosphorylation enrichment
DYDHSYYFIAT [ESD_Y262_G257D]	5.16
RRNVYYYSYLL [PTEN_Y177_Y174N]	1.74
HILRVYSGVLP [PCNX4_Y999_G1000S]	0.841
EMFNPCYGLFE [NEDD4L_Y679_Y679C]	0.489
GGQDVYGDFGG [Probound]	0.718

Query: Please supply the value of reported phosphorylation enrichment for the item CPASVYTKRCS [CPT2_Y508_R503C]
Reply: 0.349

Query: Please supply the value of reported phosphorylation enrichment for the item KNKELYSDPFD [PDE10A_Y300_L303P]
Reply: 0.878

Query: Please supply the value of reported phosphorylation enrichment for the item RPASQYPHQVP [ADAM12_Y895_P893S]
Reply: 0.205

Query: Please supply the value of reported phosphorylation enrichment for the item FSTSPYLLEAA [BRIP1_Y921_YF]
Reply: 0.488

###

Biological target: EPHB2 (UniProt P29323)
Sequence (P29323 whole entry, looked up): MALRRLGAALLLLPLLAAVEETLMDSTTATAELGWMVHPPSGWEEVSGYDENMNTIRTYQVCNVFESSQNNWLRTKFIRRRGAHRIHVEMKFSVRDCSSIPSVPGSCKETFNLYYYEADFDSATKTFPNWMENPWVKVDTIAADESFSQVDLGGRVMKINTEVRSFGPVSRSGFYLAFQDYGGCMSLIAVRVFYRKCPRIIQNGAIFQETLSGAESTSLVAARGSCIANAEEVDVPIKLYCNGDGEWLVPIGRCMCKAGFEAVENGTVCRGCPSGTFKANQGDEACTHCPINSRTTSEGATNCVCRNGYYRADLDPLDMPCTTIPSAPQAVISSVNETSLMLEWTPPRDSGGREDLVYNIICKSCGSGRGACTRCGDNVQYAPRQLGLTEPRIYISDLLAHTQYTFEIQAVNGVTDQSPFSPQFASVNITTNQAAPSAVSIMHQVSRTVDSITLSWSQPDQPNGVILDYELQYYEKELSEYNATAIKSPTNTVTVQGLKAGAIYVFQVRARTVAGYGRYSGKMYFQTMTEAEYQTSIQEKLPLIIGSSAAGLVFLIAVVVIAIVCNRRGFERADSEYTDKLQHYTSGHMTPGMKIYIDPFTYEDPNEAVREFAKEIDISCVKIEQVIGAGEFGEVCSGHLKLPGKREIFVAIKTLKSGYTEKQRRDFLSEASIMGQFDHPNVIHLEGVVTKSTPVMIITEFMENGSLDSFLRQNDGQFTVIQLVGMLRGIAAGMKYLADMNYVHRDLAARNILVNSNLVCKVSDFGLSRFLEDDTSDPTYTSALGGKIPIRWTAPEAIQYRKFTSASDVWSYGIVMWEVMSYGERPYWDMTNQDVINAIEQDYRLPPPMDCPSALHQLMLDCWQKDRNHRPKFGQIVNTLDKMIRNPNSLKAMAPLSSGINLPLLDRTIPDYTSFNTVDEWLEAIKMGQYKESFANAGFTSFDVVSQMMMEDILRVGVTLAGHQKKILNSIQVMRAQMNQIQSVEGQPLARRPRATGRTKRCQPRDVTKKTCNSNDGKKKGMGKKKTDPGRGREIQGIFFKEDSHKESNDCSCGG
Assay: phosphorylation enrichment, bacterial display (enrichment ratio); higher = better substrate or ligand; peptides without Tyr show the background
Criterion: phosphorylation enrichment meeting or surpassing 0.5. Met: y. Not met: n.

Worked examples follow.
Residues	Answer label
FAASSYSFSDL [EMD_Y59_S54F]	y
PLDGEYFTLPI [TP53_Y327_Q331P]	y
INSLKYAFNIS [EIF2B5_Y583_YF]	n

Query: Quick check: does CVGGFYGGCNE [CTSC_Y352_Y347C] have phosphorylation enrichment greater than or equal to 0.5?
Reply: y

###

This section presents sequences with their documented phosphorylation enrichment values.
Molecular target: FGFR3 (UniProt P22607)
Sequence (P22607 whole entry, looked up): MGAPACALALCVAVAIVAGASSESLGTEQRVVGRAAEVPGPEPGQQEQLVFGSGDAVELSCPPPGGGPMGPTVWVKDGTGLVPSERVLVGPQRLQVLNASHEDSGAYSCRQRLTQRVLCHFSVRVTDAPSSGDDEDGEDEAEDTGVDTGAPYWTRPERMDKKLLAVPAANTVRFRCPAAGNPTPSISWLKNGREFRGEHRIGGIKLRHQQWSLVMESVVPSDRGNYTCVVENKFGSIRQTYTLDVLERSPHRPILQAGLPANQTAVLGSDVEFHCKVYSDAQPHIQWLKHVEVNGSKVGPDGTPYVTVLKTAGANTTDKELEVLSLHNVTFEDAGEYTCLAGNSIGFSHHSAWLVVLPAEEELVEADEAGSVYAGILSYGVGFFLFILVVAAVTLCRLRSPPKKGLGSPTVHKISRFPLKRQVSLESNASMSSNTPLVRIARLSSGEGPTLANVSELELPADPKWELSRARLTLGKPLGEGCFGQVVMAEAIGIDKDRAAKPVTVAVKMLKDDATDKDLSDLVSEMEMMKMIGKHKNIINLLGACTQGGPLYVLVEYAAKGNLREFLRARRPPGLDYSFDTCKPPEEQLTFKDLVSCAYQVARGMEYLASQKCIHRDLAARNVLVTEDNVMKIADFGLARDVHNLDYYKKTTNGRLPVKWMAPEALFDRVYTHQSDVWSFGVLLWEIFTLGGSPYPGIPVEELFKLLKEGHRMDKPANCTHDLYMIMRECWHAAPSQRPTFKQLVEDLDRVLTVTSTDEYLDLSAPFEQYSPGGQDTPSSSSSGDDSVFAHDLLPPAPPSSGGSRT
Experiment: phosphorylation enrichment, bacterial display (enrichment ratio); higher = better substrate or ligand; peptides without Tyr show the background
Reply with the value as a number alone.

Worked cases, answers included:
Residues	Test value
ARMTNYGLPRY [TSPAN12_Y138]	0.441
IETGRYEILTE	0.632
DVRQEYSGMIL [PLXND1_Y616_P617S]	0.565
FGHTFYNQAIM [MCCC2_Y196_R193H]	0.556
SRVTQYERDFE [SNX1_Y463]	0.611
TLLAFYMGNFS [GLB1_Y552_P549L]	0.839
RVQKRYIFDNV [RCN1_Y115]	0.619
TDGNGYISFNE [LCP1_Y28]	0.752

Query: Please supply the value of reported phosphorylation enrichment for the item KPSLKYVTYGN [GALNTL5_Y404_G401S]
Reply: 0.516

Query: Please supply the value of reported phosphorylation enrichment for the item LGIDRYHAIVY [NPSR1_Y147_S143G]
Reply: 1.84

Query: Please supply the value of reported phosphorylation enrichment for the item SLLLSYYLIKW [NUP160_Y773_P768S]
Reply: 2.09

Query: Please supply the value of reported phosphorylation enrichment for the item SLDLSYFHTSS [EMD_Y181_P183H_YF]
Reply: 0.595

Query: Please supply the value of reported phosphorylation enrichment for the item GIVEDYRPPFF [ACVRL1_Y421_YF]
Reply: 0.667

Query: Please supply the value of reported phosphorylation enrichment for the item RLEGVYRNNID [PTEN_Y46]
Reply: 0.703

Query: Please supply the value of reported phosphorylation enrichment for the item GQSKGYRPKLF [SIPA1L3_Y1376_YF]
Reply: 0.419

Query: Please supply the value of reported phosphorylation enrichment for the item WPLKWYAPECI [ZAP70_Y506]
Reply: 0.806

Query: Please supply the value of reported phosphorylation enrichment for the item RSFPSYFTSHV [NEFL_Y442_YF]
Reply: 0.634

Query: Please supply the value of reported phosphorylation enrichment for the item DNAYQYMLTDR [MYH7_Y164]
Reply: 2.3

Query: Please supply the value of reported phosphorylation enrichment for the item EMQAAYQKVVA [HBD_Y131_Q126E]
Reply: 0.574

Query: Please supply the value of reported phosphorylation enrichment for the item HNVPICEGFAL [ACTC1_Y168_Y168C_YF]
Reply: 0.947

Query: Please supply the value of reported phosphorylation enrichment for the item AGREEYSAMRD [KRAS_Y64_Q61R]
Reply: 0.575

Query: Please supply the value of reported phosphorylation enrichment for the item DAASNYARGHY [TUBA3E_Y103]
Reply: 0.463

Query: Please supply the value of reported phosphorylation enrichment for the item EMFNPCYGLFE [NEDD4L_Y679_Y679C]
Reply: 0.713

Query: Please supply the value of reported phosphorylation enrichment for the item KLKRSYCSPDI [USP8_Y717_S718C]
Reply: 0.534

###

Biological target: Grb2 SH2 (UniProt P62993)
Sequence (P62993 whole entry, looked up): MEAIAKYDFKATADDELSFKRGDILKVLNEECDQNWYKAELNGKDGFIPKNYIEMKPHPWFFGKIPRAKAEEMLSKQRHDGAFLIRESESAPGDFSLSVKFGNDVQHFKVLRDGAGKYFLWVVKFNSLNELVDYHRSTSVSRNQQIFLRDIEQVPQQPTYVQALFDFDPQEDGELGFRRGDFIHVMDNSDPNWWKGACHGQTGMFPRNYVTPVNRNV
Experiment: SH2 binding enrichment of the phosphorylated peptide, bacterial display (enrichment ratio); higher = better substrate or ligand; peptides without Tyr show the background
Measurement name: SH2 binding enrichment

Query: Please supply the value of reported SH2 binding enrichment for the item RPASQYPHQVP [ADAM12_Y895_P893S]
Reply: 0.883

Query: Please supply the value of reported SH2 binding enrichment for the item RLCQDYDIIGP [ANK1_Y1073_T1075I]
Reply: 0.703

Query: Please supply the value of reported SH2 binding enrichment for the item MHDSNYVSKGS [PDGFRA_Y849]
Reply: 0.739

Query: Please supply the value of reported SH2 binding enrichment for the item NSRFTCKLEVK [USH2A_Y3747_Y3747C_YF]
Reply: 0.768

###

Molecular target: c-Src SH2
Experiment: SH2 binding enrichment of the phosphorylated peptide, bacterial display (enrichment ratio); higher = better substrate or ligand; peptides without Tyr show the background
Measurement name: SH2 binding enrichment

Residues	SH2 binding enrichment
GNHISYFQSDG [CACNA1C_Y1757_V1755I_YF]	0.401
VQNIVYHTASI [CYP39A1_Y102_R103H]	1.69
RALLNYIASKY [GSTA3_Y74_I71L]	0.768
EQMASYFGHSV [ITGA2B_Y319]	0.491

Query: Please supply the value of reported SH2 binding enrichment for the item SAASSYSFSDL [EMD_Y59]
Reply: 0.544

Query: Please supply the value of reported SH2 binding enrichment for the item PDSVDYRKKGF [CTSK_Y121_YF]
Reply: 0.625

Query: Please supply the value of reported SH2 binding enrichment for the item KPGVNYYFRVS
Reply: 0.624

###

Tested on: c-Src
Assay: phosphorylation enrichment, bacterial display (enrichment ratio); higher = better substrate or ligand; peptides without Tyr show the background
Measurement name: phosphorylation enrichment
Reply with the value as a number alone.

Worked cases, answers included:
Residues	Measurement name	Test value
VEYAKYGSLRG [RET_Y809]	phosphorylation enrichment	1.56
QMVRMYASSFM [AVPR2_Y124_G122R_YF]	phosphorylation enrichment	0.328
QMQAAYQKAVA [HBD_Y131_V134A]	phosphorylation enrichment	0.307

Query: Please supply the value of reported phosphorylation enrichment for the item MAPQMYEFHLP [NCAPD2_Y6]
Reply: 0.655

Query: Please supply the value of reported phosphorylation enrichment for the item SLLLSYYLIKW [NUP160_Y773_P768S]
Reply: 0.587

Query: Please supply the value of reported phosphorylation enrichment for the item GIVEDYRPPFF [ACVRL1_Y421_YF]
Reply: 0.42

Query: Please supply the value of reported phosphorylation enrichment for the item MEIHAYRKLSE [LMNA_Y376_L380S]
Reply: 0.384

Each recorded value in this set is attributed to the supplement of paper PMC10065799.
